- Test system: MS2 coat protein
- experimental.details: apparent Kd, MS2 coat protein; higher = weaker binding; RNA-MaP array
- condition: designed as: OFF switch for flavin mononucleotide; no ligand
experimental.endpoint: apparent Kd
Answer with the value and then the unit.

Answered examples (5):
entry.sequence | apparent Kd
UUAGGUGCAGGAUAUACAAGACUUAGUAGGAUACCAGACCUACAUGAGGAUCACCCAUGUAGAAGGGCAAUGCA | 20.6 nM
UAUACUAAUGUCAGGAUAUUAUAAAGUAAGAUAUAUAAGAAGGGACAUGAGGAUCACCCAUGUGACAAGGACGA | 13.4 nM
AAUGACGCGAAGAAGGACUGAUACCAGCUAAAAGUAGGAUAUUCUGAACGUGGACGGUUUACAUGAGGAUCACCCAUGUAUGAA | 9.29 nM
CGGAAACAAGUAGGAUAUCACUUGAAUGUACAUGAGGAUCACCCAUGUUCCUUACGGCCGCGUUUUGAGAAGGACUAUUCAAAA | 17.6 nM
CCGGAAUUGCAGGAUAUACGCAAACCACAUGCUGUAGAAGGGCAAACAUGAGGAUCACCCAUGUGGUCGAGCAG | 13.4 nM

Below are some sequences; for each one, tell me its apparent Kd.
1. AUUCGGUCAGGAUAUAGCGCACGCCGACGAACAUGUGGCGGCUAGAAGGGACAUGAGGAUCACCCAUGUCGGGC
2. UUGUUUAGGAUAGGAUAUAGGUCUAAAAGUGAGUCGGACAUGAGGAUCACCCAUGUGGGUGCGAUCUAGAAGGAUCCGCCGCGG
3. GAUUGGCUAGGAUAUACAGUGUCUAAGUCGACACCGUGAUAACAUGAGGAUCACCCAUGUAGAAGGAGCACAAA
4. CUCUAACAAGGAUAUACAUGUCCCAGGAUCCUAUAGGCUUUACAUGAGGAUCACCCAUGUAGAAGGUGUAUUAC

Result:
1. 8.41 nM
2. 754 nM
3. 6.78 nM
4. 18.7 nM

Cited source: the EternaBench riboswitch data
